- Tested on: J774
- run description: Cytotoxicity against mouse J774 cells assessed as cell viability at 10 times MIC by MTT assay relative to control
- Type: cell-based
In plain terms, low Activity, meaning strictly below 50%, gives Criterion met, and everything else gives Criterion not met.

input: Record O=C(c1ccco1)c1c(C(F)(F)F)[n+]([O-])c2cc(Cl)c(N3CCOCC3)cc2[n+]1[O-] : is its Activity strictly below 50%?
output: Criterion met

input: Record CC(=O)c1c(C(F)(F)F)[n+]([O-])c2cc(F)c(N3CCCCC3)cc2[n+]1[O-] : is its Activity strictly below 50%?
output: Criterion not met

input: Record CC(=O)c1c(C(F)(F)F)nc2cc(F)c(N3CCSCC3)cc2[n+]1[O-] : is its Activity strictly below 50%?
output: Criterion met

input: Record CO[C@H]1/C=C/O[C@@]2(C)Oc3c(C)c(O)c4c(O)c(c(/C=N/N5CCN(C)CC5)c(O)c4c3C2=O)NC(=O)/C(C)=C\C=C\[C@H](C)[C@H](O)[C@@H](C)[C@@H](O)[C@@H](C)[C@H](OC(C)=O)[C@@H]1C : is its Activity strictly below 50%?
output: Criterion not met

input: Record Cc1c(C(=O)/C=C/c2ccccc2)[n+]([O-])c2cc(Cl)ccc2[n+]1[O-] : is its Activity strictly below 50%?
output: Criterion met

input: Record COC(=O)c1c(C(F)(F)F)[n+]([O-])c2ccc(N3CCN(c4ccc(F)cc4)CC3)cc2[n+]1[O-] : is its Activity strictly below 50%?
output: Criterion met
